Record form. Attribute: combination Emax. Fill in for each entry.
- System: Caov-4 (Ovarian Carcinoma)
- ASSAY_INFO: combination Emax (second highest fraction inhibited in the dose matrix, 72 h); higher = more inhibition; extreme values may be limits of the assay
Lab note: jot the number down without any unit.

**Query** For the compound shown here, Cc1cc2ncnn2cc1Nc1ncc2c(n1)n(C1CCOCC1)c(=O)n2C [AZD7648] + C[C@@H]1COCCN1C2=NC(=NC(=C2)C3(CC3)[S@](=N)(=O)C)C4=C5C=CNC5=NC=C4 [AZD6738] (first compound max 10 µM, 7x7, partner max 10 µM) , give the reported combination Emax.
**Result** 0.916

**Query** For the compound shown here, Cn1cnc2c(F)c(Nc3ccc(Br)cc3Cl)c(C(=O)NOCCO)cc21 [Selumetinib] + CCN(CCO)CCCOc1ccc2c(Nc3cc(CC(=O)Nc4cccc(F)c4)[nH]n3)ncnc2c1 [AZD2811] (first compound max 10 µM, 7x7, partner max 1 µM) , give the reported combination Emax.
**Result** 0.551

**Query** For the compound shown here, COc1nnc2ccc(N3CCC(c4ccc(OCCN5CCN(C)C(=O)[C@H]5C)cc4)CC3)nn12 [AZD5153] + Cn1cnc2c(F)c(Nc3ccc(Br)cc3Cl)c(C(=O)NOCCO)cc21 [Selumetinib] (first compound max 1 µM, 7x7, partner max 10 µM) , give the reported combination Emax.
**Result** 0.706

**Query** For the compound shown here, CN(CCO)CC[C@H](CSc1ccccc1)Nc1ccc(S(=O)(=O)NC(=O)c2ccc(N3CCC([C@@H](O)c4ccccc4-c4ccc(Cl)cc4)CC3)cc2)cc1S(=O)(=O)C(F)(F)F [AZD4320] + Nc1ccn([C@@H]2O[C@H](CO)[C@@H](O)C2(F)F)c(=O)n1 [Gemcitabine] (first compound max 1 µM, 7x7, partner max 0.3 µM) , give the reported combination Emax.
**Result** 0.685

* * *

- Test system: PWR-1E (Non-Cancerous)
- ASSAY_INFO: combination Emax (second highest fraction inhibited in the dose matrix, 72 h); higher = more inhibition; extreme values may be limits of the assay
ASSAY_READOUT: combination Emax
Lab note: jot the number down without any unit.

**Query** For the molecule shown here, CC1(C)CCC(CN2CCN(c3ccc(C(=O)NS(=O)(=O)c4ccc(NCC5CCOCC5)c([N+](=O)[O-])c4)c(Oc4cnc5[nH]ccc5c4)c3)CC2)=C(c2ccc(Cl)cc2)C1 [Venetoclax] + C1CN(CCC1(C(=O)N[C@@H](CCO)C2=CC=C(C=C2)Cl)N)C3=NC=NC4=C3C=CN4 [Capivasertib] (first compound max 1 µM, 7x7, partner max 3 µM) , give the reported combination Emax.
**Result** 0.203

**Query** For the molecule shown here, Cc1c2c(nn1C)CSCc1cc(n(C)n1)CSc1cc(c3ccccc3c1)OCCCc1c(C(=O)O)n(C)c3c-2c(Cl)ccc13 [AZD5991] + Cn1cnc2c(F)c(Nc3ccc(Br)cc3Cl)c(C(=O)NOCCO)cc21 [Selumetinib] (first compound max 1 µM, 7x7, partner max 3 µM) , give the reported combination Emax.
**Result** 0.21

* * *

- Test system: KYSE-450 (Esophageal Squamous Cell Carcinoma)
- ASSAY_INFO: combination Emax (second highest fraction inhibited in the dose matrix, 72 h); higher = more inhibition; extreme values may be limits of the assay
ASSAY_READOUT: combination Emax
Lab note: jot the number down without any unit.

**Query** For the molecule shown here, CC1(C)CCC(CN2CCN(c3ccc(C(=O)NS(=O)(=O)c4ccc(NCC5CCOCC5)c([N+](=O)[O-])c4)c(Oc4cnc5[nH]ccc5c4)c3)CC2)=C(c2ccc(Cl)cc2)C1 [Venetoclax] + COc1cc(Nc2ncc3c(n2)-c2ccc(Cl)cc2C(c2c(F)cccc2OC)=NC3)ccc1C(=O)O [Alisertib] (first compound max 1 µM, 7x7, partner max 10 µM) , give the reported combination Emax.
**Result** 0.437

**Query** For the molecule shown here, COc1cc2c(cc1OCCCCCOc1cc3c(cc1OC)C(=O)N1C=C(C)C[C@H]1C=N3)N=C[C@@H]1CC(C)=CN1C2=O [SG3199] + O=C(c1cc(Cc2n[nH]c(=O)c3ccccc23)ccc1F)N1CCN(C(=O)C2CC2)CC1 [Olaparib] (first compound max 0.001 µM, 7x7, partner max 10 µM) , give the reported combination Emax.
**Result** 0.0761

**Query** For the molecule shown here, N#Cc1cnc(Nc2cc(NC[C@H]3CNCCO3)c(C(F)(F)F)cn2)cn1 [SRA737] + O=c1[nH]cc(F)c(=O)[nH]1 [5-Fluorouracil] (first compound max 10 µM, 7x7, partner max 20 µM) , give the reported combination Emax.
**Result** 0.379

**Query** For the molecule shown here, C[C@@H]1COCCN1c1cc(C2([S@](C)(=N)=O)CC2)nc(-c2ccnc3[nH]ccc23)n1 [AZD6738] + C1CC(C1)(C(=O)[O-])C(=O)[O-].N.N.[Pt+2] [Carboplatin] (first compound max 10 µM, 7x7, partner max 10 µM) , give the reported combination Emax.
**Result** 0.312
